# tested_target: D(4) dopamine receptor (Homo sapiens, UniProt P21917)
# Sequence (P21917 whole entry): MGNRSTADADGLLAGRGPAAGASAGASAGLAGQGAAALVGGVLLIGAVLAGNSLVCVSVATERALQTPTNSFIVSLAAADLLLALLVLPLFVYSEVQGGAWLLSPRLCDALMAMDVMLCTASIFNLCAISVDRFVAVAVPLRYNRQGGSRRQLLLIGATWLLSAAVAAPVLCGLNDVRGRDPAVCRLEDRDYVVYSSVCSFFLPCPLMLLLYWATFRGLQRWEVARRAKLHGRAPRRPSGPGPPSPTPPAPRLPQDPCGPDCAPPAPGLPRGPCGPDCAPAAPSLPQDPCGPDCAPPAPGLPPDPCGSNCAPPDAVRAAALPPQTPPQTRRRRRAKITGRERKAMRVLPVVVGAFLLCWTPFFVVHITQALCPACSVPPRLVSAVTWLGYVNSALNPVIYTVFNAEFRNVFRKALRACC
measurement_name: Ki
I'd appreciate it if you included the unit after the number.

Worked set:
1. CCOc1ccccc1N1CCN(CCC[C@@H]2CC(c3ccc(OC)c(OC)c3)=NO2)CC1	507 nM
2. COc1ccc(C2=NO[C@@H](CCCN3CCN(C(c4ccc(F)cc4)c4ccc(F)cc4)CC3)C2)cc1OC	483 nM
3. CCOc1ccccc1N1CCN(CCC[C@H]2CC(c3ccc(OC)c(OC)c3)=NO2)CC1	225 nM

Would you kindly look at the next entry?
Challenge: Need Ki of COc1ccc(C2=NO[C@H](CCCN3CCN(C(c4ccc(F)cc4)c4ccc(F)cc4)CC3)C2)cc1OC , thanks.
Response given: 426 nM
